Each recorded value in this set is attributed to patent US20240317871A1.

Biological target: T1, human HVEM (human, UniProt Q92956 39-202, limits assumed); further: test concentration or dose not given here
T1 sequence (looked up): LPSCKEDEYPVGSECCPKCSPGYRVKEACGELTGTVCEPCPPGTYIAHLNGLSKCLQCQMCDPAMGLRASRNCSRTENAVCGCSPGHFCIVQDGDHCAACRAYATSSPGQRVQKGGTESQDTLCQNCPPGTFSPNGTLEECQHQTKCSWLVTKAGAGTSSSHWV
Assay: ELISA

BINDER | ELISA signal
Ab_038 (H5S15-19A18A) (antibody, V domains shown, also called Ab_38) VH: QVQLKESGPGLVAPSQSLSITCTVSGFSLTGYGVNWVRQPPGKGLEWLGMIWGDGGTDYNSALKSRLSISKDNSKSQVFLKMNSLQTDDTARYYCARDNYHTVVNGDYWGQGTSVTVSS VL: ENVLTQSPAIMSASPGEKVTMTCRASSSVSSSYLHWYQQKSGASPKLWIYSTSNLASGVPARFSGSGSGTSYSLTISSVEAEDAATYYCQQYSGYPLTFGGGTKLEIK | 0.049
Ab_021 (H5S14-29A20A) (antibody, V domains shown, also called Ab_21) VH: EVQLQQSGPELVKPGASVKMSCKASGYTFTSYVMHWVKQKPGQGLEWIGYINPYNDGTKYNEKFKGKATLTSDKSSSTAYMELSSLTSEDSAVYYCARGIITTVVEPILYAMDYWGQGTSVTVSS VL: NIVLTQSPASLAVSLGQRATISCRASESVDSYGNSFMHWYQQKPGQPPKLLIYLASNLESGVPARFSGSGSRTDFTLTIDPVEADDAATYYCQQNNEDPYTFGGGTKLEIK | 0.046
Ab_017 (H5S14-18A16A) (antibody, V domains shown, also called Ab_17) VH: EVQLVETGGGLVQPKGSLKLSCAASGFTFNTNAMNWVRQAPGKGLEWVARIRSKSNNYATYYADSVKDRFTISRDDSQSMLYLQMNNLKTEDTAMYYCVREGGYGNYPYFDYWGQGTTLTVSS VL: SIVMTQTPKFLLVSAGDRVTITCKASQSVSNDVAWYQQKPGQSPKLLIYYASNRYTGVPDRFTGSGYGTDFTFTISTVQAEDLAVYFCQQDYSSPWTFGGGTKLEIK | 0.051
